Here the recorded TGI is given for each entry.
Tested on: SN12C renal
measurement protocol: NCI tumour cell line growth inhibition, 48 h

Recorded results for 5 compounds are shown here.
compound=CCOn1c(C2(CC3CCN(C(=O)c4ccccc4)CC3)OCCO2)cc2ccccc21 result="30.9 µM"
compound=CCOc1cc(-c2nc3ccccn3c2/N=C/c2cc(Br)ccc2O)ccc1O result="> 100 µM"
compound="CCOC(=O)C1=C(OC(OCC)C(CC)[Se]c2ccccc2)CCCC1 (stereo not given)" result="34.1 µM"
compound="CCOC(=O)[C]1([Bi]([CH3])[CH3])N=NC(C(=O)OC)=C1C(=O)OC (stereo not given)" result="35.8 µM"
compound=[Cl-].[Dy+3].[O-]/N=C(\c1ccccc1)c1ccccn1.[O-]/N=C(\c1ccccc1)c1ccccn1.[O-]/N=C(\c1ccccc1)c1ccccn1 result="> 100 µM"

Recorded TGI (compound CC(C)(C)OC(=O)N1CCc2c(sc3ncnc(N/N=C/c4cccc5ccccc45)c23)C1 ): 32.9 µM

# compound O=c1c2cc([N+](=O)[O-])ccc2sc2ccsc12 ; its TGI = > 100 µM

Briefly, TGI measured for CC(=O)OCCN1c2ccccc2Sc2cnccc21 : > 10 µM

Given item Cc1cc2ncc3c(=O)n(NS(=O)(=O)c4ccc(N)cc4)ccc3n2n1 , the value recorded as its TGI is > 100 µM

Notebook: CCCCN=C(NC#N)NCCCC , TGI read as > 100 µM
